Data provenance: patent US20160008366A1

# assayExplanation: CSF and plasma concentration ratios for ibrutinib and PCI-45227, patient 01-001BF
# Type: in vivo, human
# experimentalParameters: human, CSF/plasma, 560 mg daily, ibrutinib 560 mg daily, 1 Month, 3 h
testReadout: Kp
Reply with the value as a number alone.

QUERY: Returns the measured Kp for the input compound. Input: C=CC(=O)N1CCC[C@@H](n2nc(-c3ccc(Oc4ccccc4)cc3)c3c(N)ncnc32)C1
RESULT: 0.035

* * *

# assayExplanation: CSF and plasma concentration ratios for ibrutinib and PCI-45227, patient 01-001BF
# Format: in vivo, human
# experimentalParameters: human, CSF/plasma, 560 mg daily, ibrutinib 560 mg daily, Day 1, 2 h
testReadout: Kp
Reply with the value as a number alone.

QUERY: Returns the measured Kp for the input compound. Input: C=CC(=O)N1CCC[C@@H](n2nc(-c3ccc(Oc4ccccc4)cc3)c3c(N)ncnc32)C1
RESULT: 0.03
